# METHOD SUMMARY: Plasma pharmacokinetics after single oral dose of Δ8-THCV in MCT oil (LC-MS/MS, non-compartmental analysis)
# Type: in vivo, human
# CONDITION SUMMARY: 50 mg single oral Δ8-THCV in MCT oil; plasma; Mean (±SD)
Would you kindly list tlast (time to last quantifiable concentration) for each of these molecules?

Consider the molecule shown here: CCCc1cc(O)c2c(c1)OC(C)(C)[C@@H]1CC=C(C)C[C@@H]21 [Δ8-THCV, Δ8-tetrahydrocannabivarin] What is its recorded tlast (time to last quantifiable concentration)?
7.9 (±0.5)

Consider the molecule shown here: `CCCc1cc(O)c2c(c1)OC(C)(C)[C@@H]1CC=C(C(=O)O)C[C@@H]21` What is its recorded tlast (time to last quantifiable concentration)?
8 (±0)

Consider the molecule shown here: CCCc1cc(O)c2c(c1)OC(C)(C)[C@@H]1CC=C(CO)C[C@@H]21 (racemic) [11-OH-Δ8-THCV, (±)-11-hydroxy-Δ8-THCV] What is its recorded tlast (time to last quantifiable concentration)?
7.8 (±0.6)

Consider the molecule shown here: `CCCc1cc(O)c2c(c1)OC(C)(C)[C@@H]1CCC(C(=O)O)=C[C@@H]21` What is its recorded tlast (time to last quantifiable concentration)?
8 (±0)
